Parameter CRF1R EC50: see the listing below.
# system under test: CRF1R
# assay protocol: cell-based or functional assay
Ends that are not written are not given here.
readout type: CRF1R EC50

# binder, readout type, result
rows = [
    ("ZGPPISIDLPFQLLRKMIEIEKQEKEKQQAANNRLLLATI (not fully specified; C-terminal amide) [SEQ ID NO 250]", "CRF1R EC50", "138 nM"),
    ("ZGPPISIDLPYQLLRKVIEIEKQEKEKQQAANNRLLLDTI (C-terminal amide) [SEQ ID NO 283]", "CRF1R EC50", "635 nM"),
    ("ZGPPISIDLPTYLLRKMIEIEKQEKEKQQAANNALLLDTI (C-terminal amide) [SEQ ID NO 232]", "CRF1R EC50", "1000 nM"),
    ("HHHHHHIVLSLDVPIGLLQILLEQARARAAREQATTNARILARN-NH2 [SEQ ID NO 296]", "CRF1R EC50", "100 nM"),
    ("ZGPPISIDLPAFLLRKMIEIEKQEKEKQQAANNRLLLDTI (C-terminal amide) [SEQ ID NO 222]", "CRF1R EC50", "384 nM"),
    ("DNPSLSIDLPLLLLRTLLELEKTQSQRERAEQNARIFDRV-NH2 [SEQ ID NO 338]", "CRF1R EC50", "1000 nM"),
    ("ZGPPISIDLPTWLLRKVIEIEKQEKEKQQAANNARLLARI (C-terminal amide) [SEQ ID NO 291]", "CRF1R EC50", "1000 nM"),
    ("ZGPPISIDLPQILLRKVIEIEKQEKEKQQAANNRLLLDTI (C-terminal amide) [SEQ ID NO 293]", "CRF1R EC50", "520 nM"),
    ("ZGPPISIDVPLQLLRKVIEIEKQEKEKQQAANNARLLARI (C-terminal amide) [SEQ ID NO 381]", "CRF1R EC50", "1000 nM"),
    ("ZGPPISIDLPFFLLRKVIEIEKQEKEKQQAANNALLLDTI (C-terminal amide) [SEQ ID NO 316]", "CRF1R EC50", "222 nM"),
    ("ZGPPISIDLPLALLRKMIEIEKQEKEKQQAANNRLLLDTI (C-terminal amide) [SEQ ID NO 308]", "CRF1R EC50", "63.5 nM"),
    ("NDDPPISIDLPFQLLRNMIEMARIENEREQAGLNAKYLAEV-NH2 [SEQ ID NO 258]", "CRF1R EC50", "1000 nM"),
    ("DNPSLSIDLPLLLLRTLLELEKTQSQRERAEQNAQIFAHV-NH2 [SEQ ID NO 324]", "CRF1R EC50", "1000 nM"),
    ("ZGPPISIDLPQALLRKMIEIEKQEKEKQQAANNRLLLDTI (C-terminal amide) [SEQ ID NO 302]", "CRF1R EC50", "366 nM"),
    ("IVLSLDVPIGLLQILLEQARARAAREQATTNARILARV-NH2 [SEQ ID NO 354]", "CRF1R EC50", "1000 nM"),
    ("ZGPPISIDLPFALLRKMIEIEKQEKEKQQAANNRLLLDTI (C-terminal amide) [SEQ ID NO 307]", "CRF1R EC50", "78.4 nM"),
    ("ZGPPISIDVPYWLLRKVIEIEKQEKEKQQAANNARLLARI (C-terminal amide) [SEQ ID NO 373]", "CRF1R EC50", "1000 nM"),
    ("ZGPPISIDVPYWLLRKVIEIEKQEKEKQQAANNARLLDTI (C-terminal amide) [SEQ ID NO 372]", "CRF1R EC50", "1000 nM"),
    ("ZGPPISIDLPQWLLRKMIEIEKQEKEKQQAANNRLLLDTI (C-terminal amide) [SEQ ID NO 213]", "CRF1R EC50", "1000 nM"),
    ("DNPSLSIDLPLLLLRTLLELEKTQSQRERAEQNAIIFASV-NH2 [SEQ ID NO 347]", "CRF1R EC50", "1000 nM"),
    ("IVLSLDVPIGLLQKMIEIEKQEKEKQQATTNARILARV-NH2 [SEQ ID NO 322]", "CRF1R EC50", "1000 nM"),
    ("ZGPPISIDLPLQLLRKMIEIEKQEKEKQQAANNALLLDTI (not fully specified; C-terminal amide) [SEQ ID NO 248]", "CRF1R EC50", "1000 nM"),
    ("ZGPPISIDVPYHLLRKVIEIEKQEKEKQQAANNARLLARI (C-terminal amide) [SEQ ID NO 377]", "CRF1R EC50", "1000 nM"),
    ("ZGPPISIDVPIYLLRKVIEIEKQEKEKQQAANNARLLARI (C-terminal amide) [SEQ ID NO 379]", "CRF1R EC50", "1000 nM"),
]
